- test.summary: Metabolic stability in rat liver microsomes
- Type: ADME, Microsome
- run.parameters: read-out: Stability
Decision: CLhep predicted compared against 40 mL/min/kg; not below it gives fulfilled, below it gives not fulfilled.

[
  {
    "molecule": "Cn1nc(-c2cnc3[nH]cc(C(=O)N[C@H]4C[C@H](O)C4)c3n2)c2ccc(F)cc21",
    "label": "fulfilled"
  },
  {
    "molecule": "C[C@@H](CO)NC(=O)c1c[nH]c2ncc(-c3nn(C)c4cc(Cl)ccc34)nc12",
    "label": "fulfilled"
  },
  {
    "molecule": "COc1cc(Nc2ncc(F)c(Nc3ccc4c(n3)N(COP(=O)(O)O)C(=O)C(C)(C)O4)n2)cc(OC)c1OC [FOSTAMATINIB]",
    "label": "fulfilled"
  },
  {
    "molecule": "COc1ccc2cnn(-c3cnc4[nH]cc(C(=O)NC(C)(C)C)c4n3)c2c1",
    "label": "not fulfilled"
  },
  {
    "molecule": "CN(C)CCCn1nc(-c2cnc3[nH]cc(C(=O)NC(C)(C)C)c3n2)c2cc(OC(F)F)ccc21",
    "label": "fulfilled"
  },
  {
    "molecule": "CC(C)NC(=O)c1c[nH]c2ncc(-c3nn(C)c4c3CC(C)(C)CC4)nc12",
    "label": "fulfilled"
  },
  {
    "molecule": "CC(C)(C)NC(=O)c1c[nH]c2ncc(-c3n[nH]c4ccc(OC(F)F)cc34)nc12",
    "label": "not fulfilled"
  },
  {
    "molecule": "CC(C)(CO)NC(=O)c1c[nH]c2ncc(-n3ncc4ccc(Cl)cc43)nc12",
    "label": "not fulfilled"
  },
  {
    "molecule": "CC(C)(C)NC(=O)c1c[nH]c2ncc(-c3nn(C4CCNCC4)c4cc(F)ccc34)nc12",
    "label": "not fulfilled"
  },
  {
    "molecule": "NC(=O)c1cnc(N[C@@H]2CCCC[C@@H]2N)nc1Nc1cccc(-n2nccn2)c1",
    "label": "not fulfilled"
  },
  {
    "molecule": "CC(C)(C)NC(=O)c1c[nH]c2ncc(-c3nn(CCC(O)CO)c4ccc(OC(F)F)cc34)nc12 (stereo unspecified)",
    "label": "fulfilled"
  },
  {
    "molecule": "CC(C)(C)NC(=O)c1c[nH]c2ncc(-c3n[nH]c4c(CO)cccc34)nc12",
    "label": "fulfilled"
  },
  {
    "molecule": "Cn1nc(-c2cnc3[nH]cc(C(=O)NC(C)(C)C)c3n2)c2cc(OC(F)F)ccc21",
    "label": "fulfilled"
  },
  {
    "molecule": "CC(C)(C)NC(=O)c1c[nH]c2ncc(-c3nn(CCCS(C)(=O)=O)c4cc(F)ccc34)nc12",
    "label": "fulfilled"
  },
  {
    "molecule": "CC(C)(C)NC(=O)c1c[nH]c2ncc(-c3nn(CCC(O)CO)c4cc(F)ccc34)nc12 (stereo unspecified)",
    "label": "not fulfilled"
  }
]

---

- test.summary: Metabolic stability in human liver microsomes
- Assay type: ADME, Microsome
- run.parameters: read-out: Stability
observable: CLhep predicted (mL/min/kg)

[
  {
    "smiles.notation": "COc1ccc2cnn(-c3cnc4[nH]cc(C(=O)NC(C)(C)C)c4n3)c2c1",
    "observable": "CLhep predicted",
    "value.reported": 11
  },
  {
    "smiles.notation": "CC(C)(C)NC(=O)c1c[nH]c2ncc(-c3n[nH]c4c(CO)cccc34)nc12",
    "observable": "CLhep predicted",
    "value.reported": 7
  },
  {
    "smiles.notation": "CC(C)(C)NC(=O)c1c[nH]c2ncc(-c3nn(C4CCNCC4)c4cc(F)ccc34)nc12",
    "observable": "CLhep predicted",
    "value.reported": 3
  },
  {
    "smiles.notation": "NC(=O)c1cnc(N[C@@H]2CCCC[C@@H]2N)nc1Nc1cccc(-n2nccn2)c1",
    "observable": "CLhep predicted",
    "value.reported": 3
  },
  {
    "smiles.notation": "Cn1nc(-c2cnc3[nH]cc(C(=O)N[C@H]4C[C@H](O)C4)c3n2)c2ccc(F)cc21",
    "observable": "CLhep predicted",
    "value.reported": 17
  },
  {
    "smiles.notation": "CC(C)(CO)NC(=O)c1c[nH]c2ncc(-n3ncc4ccc(Cl)cc43)nc12",
    "observable": "CLhep predicted",
    "value.reported": 14
  },
  {
    "smiles.notation": "CC(C)(C)NC(=O)c1c[nH]c2ncc(-c3n[nH]c4ccc(OC(F)F)cc34)nc12",
    "observable": "CLhep predicted",
    "value.reported": 10
  },
  {
    "smiles.notation": "C[C@@H](CO)NC(=O)c1c[nH]c2ncc(-c3nn(C)c4cc(Cl)ccc34)nc12",
    "observable": "CLhep predicted",
    "value.reported": 16
  },
  {
    "smiles.notation": "CN(C)CCCn1nc(-c2cnc3[nH]cc(C(=O)NC(C)(C)CO)c3n2)c2cc(OC(F)F)ccc21",
    "observable": "CLhep predicted",
    "value.reported": 12
  }
]
